Biological target: Melanocortin receptor 4 (Homo sapiens)
Experiment: MC4R antagonists in CRE-luciferase reporter cells, dose response, counter-screen for LGR2 antagonist project, cell-based, HEK293, luminescence, dry powder (AID 743505)
Conditions: antagonist mode, at 35 µM (top of the series)
The source made the active and inactive calls.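 How the source made its calls: active means dose curve with falling signal and an AC50 no higher than twice the top valid tested dose; inconclusive means flat curve with 30 to 70% inhibition, or a poor fit; inactive means rising signal, flat weak curve, or AC50 over that limit.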
REPORTED_METRIC: activity change, negative = inhibition

| COMPOUND_STRUCTURE | REPORTED_METRIC | RESULT |
| --- | --- | --- |
| C[C@H](CO)N1C[C@H](C)[C@H](CN(C)C(=O)Nc2ccc(F)cc2)OCCCC[C@H](C)Oc2ccc(NC(=O)NC3CCCCC3)cc2C1=O | activity change, negative = inhibition | inactive |
| C[C@H](CO)N1C[C@H](C)[C@H](CN(C)C(=O)Nc2cccc3ccccc23)OCCCC[C@H](C)Oc2ccc(NC(=O)c3ccccc3)cc2C1=O | activity change, negative = inhibition | inactive |
| C[C@@H]1CCCCO[C@H](CN(C)C(=O)Nc2cccc3ccccc23)[C@H](C)CN([C@H](C)CO)C(=O)c2cc(NC(=O)C3CCCCC3)ccc2O1 | activity change, negative = inhibition | inactive |
| C[C@H]1CCCCO[C@@H](CN(C)C(=O)Nc2ccc3c(c2)OCO3)[C@@H](C)CN([C@@H](C)CO)C(=O)c2cc(NC(=O)NC3CCCCC3)ccc2O1 | activity change, negative = inhibition | inactive |
| C[C@H]1CCCCO[C@H](CN(C)C(=O)Nc2cccc3ccccc23)[C@@H](C)CN([C@@H](C)CO)C(=O)c2cc(NC(=O)C3CCCCC3)ccc2O1 | activity change, negative = inhibition | inactive |
| C[C@H](CO)N1C[C@H](C)[C@H](CN(C)C(=O)Nc2ccc(F)cc2)OCCCC[C@H](C)Oc2ccc(NC(=O)C3CCCCC3)cc2C1=O | activity change, negative = inhibition | inactive |
